procedure_summary: Compound level in liver in SD rats after 1 hr of 5 mg/kg i.v. dose
Format: ADME, organism-based
Set-up: dose 5 mg/kg, route intravenous
measurement_parameters: Sprague-Dawley, rat, iv, read-out: Level
Please respond with reported concentration at 1 h for every item in the list.
One number for each entry, in ng/g.

| input_smiles | concentration at 1 h [ng/g] |
| --- | --- |
| Cc1c(NS(C)(=O)=O)cccc1N(Cc1ccc(Oc2ccc(F)c(OCC(=O)O)c2)cc1)Cc1ccc(F)cc1F | 74000 |

Returns the measured concentration at 1 h for the input molecule. Input: Cc1c(NS(C)(=O)=O)cccc1N(Cc1ccccc1)Cc1ccc(Oc2ccc(OCC(=O)O)cc2)cc1
20000

----------
procedure_summary: Plasma protein binding of tritium labeled compound in human plasma was determined
Assay type: ADME, cell-free
measurement_parameters: read-out: Protein binding
measured_metric: fraction unbound
Give bare numbers.

Returns the measured fraction unbound for the input compound. Input: Cc1c(NS(C)(=O)=O)cccc1N(Cc1ccc(Oc2ccc(F)c(OCC(=O)O)c2)cc1)Cc1ccc(F)cc1F
0.001

----------
procedure_summary: Compound level in plasma in SD rats after 7 hr of 5 mg/kg i.v. dose
Format: ADME, organism-based
Design: dose 5 mg/kg, route intravenous
measurement_parameters: Sprague-Dawley, rat, iv, read-out: Level
measured_metric: concentration at 7 h (ng/mL)
Answers are plain numbers, in ng/mL.

I need concentration at 7 h for every entry listed below, if you could help.
1. Cc1c(NS(C)(=O)=O)cccc1N(Cc1ccccc1)Cc1ccc(Oc2ccc(OCC(=O)O)cc2)cc1
2. Cc1c(NS(C)(=O)=O)cccc1N(Cc1ccc(Oc2ccc(F)c(OCC(=O)O)c2)cc1)Cc1ccc(F)cc1F

1: 10; 2: 650

----------
procedure_summary: Half life period of the compound in human liver microsomes was determined
Type: ADME, Microsome
Please respond with reported half-life for every item in the list.
Answers are plain numbers, in h.

| input_smiles | half-life, h |
| --- | --- |
| Cc1c(NS(C)(=O)=O)cccc1N(Cc1ccccc1)Cc1ccc(Oc2ccc(OCC(=O)O)cc2)cc1 | 8.9 |

Returns the measured half-life for the input compound. Input: Cc1c(NS(C)(=O)=O)cccc1N(Cc1ccc(Oc2ccc(F)c(OCC(=O)O)c2)cc1)Cc1ccc(F)cc1F
2.3

----------
procedure_summary: Clearance of the compound in rat after 5 mg/kg iv dose was determined
measurement_parameters: in vivo
measured_metric: Clearance (mL/min/kg)
Answers are plain numbers, in mL/min/kg.

Returns the measured Clearance for the input compound. Input: Cc1c(NS(C)(=O)=O)cccc1N(Cc1ccccc1)Cc1ccc(Oc2ccc(OCC(=O)O)cc2)cc1
233

----------
procedure_summary: Compound level in plasma in SD rats after 1 hr of 5 mg/kg i.v. dose
Format: ADME, organism-based
Parameters: dose 5 mg/kg, route intravenous
measurement_parameters: Sprague-Dawley, rat, iv, read-out: Level
measured_metric: concentration at 1 h (ng/mL)
Answers are plain numbers, in ng/mL.

| input_smiles | units_symbol | concentration at 1 h |
| --- | --- | --- |
| Cc1c(NS(C)(=O)=O)cccc1N(Cc1ccccc1)Cc1ccc(Oc2ccc(OCC(=O)O)cc2)cc1 | ng/mL | 30 |

Returns the measured concentration at 1 h for the input compound. Input: Cc1c(NS(C)(=O)=O)cccc1N(Cc1ccc(Oc2ccc(F)c(OCC(=O)O)c2)cc1)Cc1ccc(F)cc1F
1600
